- Test system: MDA-MB-231
- EXPERIMENT: normalised response (% of control), CellTiter-Glo; higher = more viable cells (100 = DMSO, 0 = benzethonium chloride kill control)
- STUDY CONDITIONS: incubation time: 72 h
MEASURED ATTRIBUTE: normalised response (%)
// note: answer is a bare numeric in %

Completed entries (count: 2):
COMPOUND	normalised response (%)
CCC1=C[C@@H]2CN(C1)Cc1c([nH]c3ccccc13)[C@@](C(=O)OC)(c1cc3c(cc1OC)N(C)[C@H]1[C@@](O)(C(=O)OC)[C@H](OC(C)=O)[C@]4(CC)C=CCN5CC[C@]31[C@@H]54)C2 [Vinorelbine] (100 nM)	74.9
COc1cc2nccc(Oc3ccc(NC(=O)C4(C(=O)Nc5ccc(F)cc5)CC4)cc3)c2cc1OC [Cabozantinib] (10 nM)	99.3

Return normalised response for the following compound: COc1cc2ncnc(Nc3ccc(F)c(Cl)c3)c2cc1NC(=O)/C=C/CN1CCCCC1 [Dacomitinib] (10 nM) 106

Return normalised response for the following compound: CC(C)Cn1cnc2c(N)nc3ccccc3c21 [Imiquimod] (25 nM) 102

Return normalised response for the following compound: Oc1nc(-c2ccc(C(F)(F)F)cc2)nc2c1CSCC2 [XAV-939] (100 nM) 90.9

Return normalised response for the following compound: CN(N=O)C(=O)N[C@@H](C=O)[C@@H](O)[C@H](O)[C@H](O)CO [Streptozocin] (100 nM) 112

Return normalised response for the following compound: Cc1ccc(C(=O)N(CCCN)[C@@H](c2oc3cc(Cl)ccc3c(=O)c2Cc2ccccc2)C(C)C)cc1 (1 nM) 103

====

- System: CAL-51
- EXPERIMENT: normalised response (% of control), CellTiter-Glo; higher = more viable cells (100 = DMSO, 0 = benzethonium chloride kill control)
- STUDY CONDITIONS: incubation time: 72 h
MEASURED ATTRIBUTE: normalised response (%)
// note: answer is a bare numeric in %

Completed entries (count: 2):
COMPOUND	UNIT TEXT	normalised response
O=P1(NCCCl)OCCCN1CCCl (stereo unspecified) [Ifosfamide] (1 nM)	%	78.5
Cc1ccc(C(=O)Nc2ccc(CN3CCN(C)CC3)c(C(F)(F)F)c2)cc1C#Cc1cnc2cccnn12 [Ponatinib] (100 nM)	%	112

Under CAL-51, report normalised response for CN[C@@H]1C[C@H]2O[C@@](C)([C@@H]1OC)n1c3ccccc3c3c4c(c5c6ccccc6n2c5c31)C(=O)N[C@H]4O [UCN-01] (1 nM) 78.4

Under CAL-51, report normalised response for C[C@@H](Oc1cc(-c2cnn(C3CCNCC3)c2)cnc1N)c1c(Cl)ccc(F)c1Cl [Crizotinib] (100 nM) 104

Under CAL-51, report normalised response for CC(C)Cn1cnc2c(N)nc3ccccc3c21 [Imiquimod] (0.25 nM) 96.8

Under CAL-51, report normalised response for CCC(C)(C)C(=O)O[C@H]1C[C@@H](C)C=C2C=C[C@H](C)[C@H](CC[C@@H]3C[C@@H](O)CC(=O)O3)[C@H]21 [Simvastatin] (10 nM) 115

====

- System: MCF-10A
- EXPERIMENT: normalised response (% of control), CellTox Green; higher = less cell death (100 = DMSO, 0 = benzethonium chloride kill control)
- STUDY CONDITIONS: incubation time: 72 h
Outcome label depends on normalised response relative to 90%: at/above gives y, below gives n.

Threshold query (normalised response >= 90%) on CCC(C)(C)C(=O)O[C@H]1C[C@@H](C)C=C2C=C[C@H](C)[C@H](CC[C@@H]3C[C@@H](O)CC(=O)O3)[C@H]21 [Simvastatin] (1000 nM) y

Threshold query (normalised response >= 90%) on C[C@@H](Oc1cc(-c2cnn(C3CCNCC3)c2)cnc1N)c1c(Cl)ccc(F)c1Cl [Crizotinib] (10 nM) n

Threshold query (normalised response >= 90%) on CO[C@H]1/C=C\C=C(/C)C(=O)NC2=CC(=O)C(NCCN(C)C)=C(C[C@@H](C)C[C@H](OC)[C@H](O)[C@@H](C)/C=C(\C)[C@@H]1OC(N)=O)C2=O [Alvespimycin] (1000 nM) n

====

- Test system: BT-474
- EXPERIMENT: normalised response (% of control), CellTox Green; higher = less cell death (100 = DMSO, 0 = benzethonium chloride kill control)
- STUDY CONDITIONS: incubation time: 72 h
Reported values of normalised response for individual entries
In your response, the unit should come after the numeric value.

Completed entries (count: 10):
COMPOUND	MEASURED ATTRIBUTE	ASSAY RESULT
N#CCNC(=O)c1ccc(-c2ccnc(Nc3ccc(N4CCOCC4)cc3)n2)cc1 [Momelotinib] (1000 nM)	normalised response	101%
CC(=O)Nc1ccc(C(=O)Nc2ccccc2N)cc1 [Tacedinaline] (1000 nM)	normalised response	97.7%
COc1cc2ncnc(Nc3ccc(F)c(Cl)c3)c2cc1NC(=O)/C=C/CN1CCCCC1 [Dacomitinib] (10 nM)	normalised response	98.8%
Cc1ccc(C(=O)Nc2ccc(CN3CCN(C)CC3)c(C(F)(F)F)c2)cc1C#Cc1cnc2cccnn12 [Ponatinib] (10 nM)	normalised response	100%
Clc1ccc(Nc2nnc(Cc3ccncc3)c3ccccc23)cc1 [Vatalanib] (100 nM)	normalised response	99.6%
Cn1c(Nc2ccc(C(F)(F)F)cc2)nc2cc(Oc3ccnc(-c4ncc(C(F)(F)F)[nH]4)c3)ccc21 [RAF265] (100 nM)	normalised response	100%
CNCc1ccc(-c2[nH]c3cc(F)cc4c3c2CCNC4=O)cc1 [Rucaparib] (1000 nM)	normalised response	95.8%
O=C(CCCCCCC(=O)Nc1ccc([C@H]2O[C@@H](CSc3nc(-c4ccccc4)c(-c4ccccc4)o3)C[C@@H](c3ccc(CO)cc3)O2)cc1)NO [Tubacin] (100 nM)	normalised response	102%
O=C(O)c1ccc(-c2c[nH]c3ncc(-c4ccccc4)cc23)cc1C1CCCC1 (100 nM)	normalised response	99.5%
Cn1c(CCCC(=O)O)nc2cc(N(CCCl)CCCl)ccc21 [Bendamustine] (1000 nM)	normalised response	103%

Return normalised response for the following compound: CC(C)Cn1cnc2c(N)nc3ccccc3c21 [Imiquimod] (2500 nM) 101%

Return normalised response for the following compound: Cn1c(Nc2ccc(C(F)(F)F)cc2)nc2cc(Oc3ccnc(-c4ncc(C(F)(F)F)[nH]4)c3)ccc21 [RAF265] (10 nM) 96.2%

Return normalised response for the following compound: COc1cc2nccc(Oc3ccc(NC(=O)C4(C(=O)Nc5ccc(F)cc5)CC4)cc3)c2cc1OC [Cabozantinib] (100 nM) 100%

Return normalised response for the following compound: Oc1nc(-c2ccc(C(F)(F)F)cc2)nc2c1CSCC2 [XAV-939] (100 nM) 101%

Return normalised response for the following compound: CN(C)/N=N/c1[nH]cnc1C(N)=O [Dacarbazine] (1000 nM) 102%

Return normalised response for the following compound: O=C(O)c1ccc(-c2c[nH]c3ncc(-c4ccccc4)cc23)cc1C1CCCC1 (10000 nM) 95.4%

Return normalised response for the following compound: C=C(c1ccc(C(=O)O)cc1)c1cc2c(cc1C)C(C)(C)CCC2(C)C [Bexarotene] (1000 nM) 99.1%

====

- Test system: DU-4475
- EXPERIMENT: normalised response (% of control), CellTiter-Glo; higher = more viable cells (100 = DMSO, 0 = benzethonium chloride kill control)
- STUDY CONDITIONS: incubation time: 72 h
MEASURED ATTRIBUTE: normalised response (%)
// note: answer is a bare numeric in %

Completed entries (count: 4):
COMPOUND	normalised response, %
CN(N=O)C(=O)N[C@@H](C=O)[C@@H](O)[C@H](O)[C@H](O)CO [Streptozocin] (100 nM)	102
COc1cc2ncnc(Nc3ccc(F)c(Cl)c3)c2cc1NC(=O)/C=C/CN1CCCCC1 [Dacomitinib] (10 nM)	104
NC(=O)Nc1cc(-c2cccc(F)c2)sc1C(=O)N[C@H]1CCCNC1 [AZD7762] (10 nM)	102
CNCc1ccc(-c2[nH]c3cc(F)cc4c3c2CCNC4=O)cc1 [Rucaparib] (100 nM)	97.2

Return normalised response for the following compound: CCC1=C[C@@H]2CN(C1)Cc1c([nH]c3ccccc13)[C@@](C(=O)OC)(c1cc3c(cc1OC)N(C)[C@H]1[C@@](O)(C(=O)OC)[C@H](OC(C)=O)[C@]4(CC)C=CCN5CC[C@]31[C@@H]54)C2 [Vinorelbine] (100 nM) 91.7

Return normalised response for the following compound: C[C@@H](Oc1cc(-c2cnn(C3CCNCC3)c2)cnc1N)c1c(Cl)ccc(F)c1Cl [Crizotinib] (10 nM) 103

Return normalised response for the following compound: N.N.[Cl][Pt][Cl] [Cisplatin] (10 nM) 96.6

Return normalised response for the following compound: C#Cc1cccc(Nc2ncnc3cc(OCCOC)c(OCCOC)cc23)c1 [Erlotinib] (100 nM) 105
